# study.system: Parkinson's disease protein 7 (PARK7/DJ1) (human, UniProt Q99497)
# Sequence (Q99497 whole entry, looked up): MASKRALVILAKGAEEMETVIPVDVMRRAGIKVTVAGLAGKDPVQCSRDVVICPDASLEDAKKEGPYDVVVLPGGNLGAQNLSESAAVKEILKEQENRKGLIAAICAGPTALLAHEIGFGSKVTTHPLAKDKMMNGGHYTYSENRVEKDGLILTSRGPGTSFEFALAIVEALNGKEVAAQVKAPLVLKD
# measurement.notes: primary screen, percent inhibition; higher = more effect of the substance
# stated.conditions: 100 µM
Among all 7,900 compounds or so, about 400 (5.1%) showed an effect of 50% or more. The entries come from a sample that favours strong results as a whole.
measured.parameter: Inhibition % (%)
Just the number in %, nothing appended.

Recorded Inhibition %, per entry:
O=C(CCl)NCc1ccc(N2CCCC2)cc1; 0.611
O=C(CCl)NCc1ccc(N2CCOCC2)nc1; 15.2
Cc1ccc(-n2cnc(Cl)c2C#N)cc1; 6.79
CCC(=O)N1CCc2cc(C(=O)CCl)ccc21; 3.43
CN(Cc1ccc(-c2ccc(Cl)cc2)o1)C(=O)CCl; 79.2

Here is the next item to consider.
What does the data say about its Inhibition %? Entry: CN1C(=O)CCc2cc(C(=O)CCl)ccc21 19.5

---

# study.system: Parkinson's disease protein 7 (PARK7/DJ1) (human, UniProt Q99497)
# measurement.notes: primary screen, percent inhibition; higher = more effect of the substance
# stated.conditions: 100 µM
Hit rate of the full screen: of about 7,900 compounds, about 400 (5.1%) showed an effect of 50% or more. Shown is part of a subset that was picked to be rich in strong results.
measured.parameter: Inhibition % (%)
Just the number in %, nothing appended.

Cc1cc(C#N)cc(C(=O)O)n1; 4.24
Cc1cc(C=C(C#N)C(=O)O)c(C)n1CC(C)C; 8.48
O=S(=O)(F)c1ccc(Br)cc1; 13.2
Cc1nc(C)c(C(=O)CCl)o1; 95.2
Cl.Nc1cccc2cc(S(=O)(=O)F)ccc12; 65.6

Here is the next item to consider.
What does the data say about its Inhibition %? Entry: COCc1cccnc1C#N 2.34

---

# study.system: Parkinson's disease protein 7 (PARK7/DJ1) (human, UniProt Q99497)
# measurement.notes: primary screen, percent inhibition; higher = more effect of the substance
# stated.conditions: 100 µM
# Experimental: The screen was conducted using the conditions as described above in 1536-well plates (Corning 3724) with a reaction volume of 8 μL per well. The compound library containing 7887 covalent fragments was purchased at Enamine Ltd. and received as 100 mM DMSO stocks in 384 well LDV Echo plates (Labcyte LP-0200). Stock solutions of 0.26 μM PARK7 and 80 nM JYQ-107 were prepared. […] After 2 h incubation, the FP signal was recorded on a BMG Labtech PHERAstar plate reader (λex/em 480/520 nm). […]
The whole screen tested about 7,900 compounds, of which about 400 (5.1%) showed an effect of 50% or more. This is one part of a sample in which strong results are shown more often than they occur.
Recorded Inhibition % for the following compounds

Recorded Inhibition %, per entry:
O=C(CCl)Nc1cccc(I)c1; 41%
Cc1cc(NS(=O)(=O)C2=CCCCC2)c[nH]c1=O; 48.5%

Give recorded Inhibition % with Parkinson's disease protein 7 (PARK7/DJ1) (human, UniProt Q99497) for the following compound: O=C(CCl)Nc1ccc(OCc2ccccc2)cc1 28.9%

Give recorded Inhibition % with Parkinson's disease protein 7 (PARK7/DJ1) (human, UniProt Q99497) for the following compound: Cc1cccc(NC(=O)CCl)c1 8.99%

Give recorded Inhibition % with Parkinson's disease protein 7 (PARK7/DJ1) (human, UniProt Q99497) for the following compound: Cc1cc(C=C(C#N)C(=O)N2CCC2)c(C)n1CC(C)C -2.1%

Give recorded Inhibition % with Parkinson's disease protein 7 (PARK7/DJ1) (human, UniProt Q99497) for the following compound: C=CC(=O)NC1CCCN(c2ncccn2)C1 (stereo not shown) 4.88%

Give recorded Inhibition % with Parkinson's disease protein 7 (PARK7/DJ1) (human, UniProt Q99497) for the following compound: N#Cc1c(Cl)nc2sccn12 4.22%

Give recorded Inhibition % with Parkinson's disease protein 7 (PARK7/DJ1) (human, UniProt Q99497) for the following compound: O=C(CCl)N1CCC(C(=O)N2CCCCCC2)CC1 15.1%

Give recorded Inhibition % with Parkinson's disease protein 7 (PARK7/DJ1) (human, UniProt Q99497) for the following compound: C=CC(=O)N1CCCC(c2nnc3n2CCC3)C1 (stereo not shown) 5.59%

Give recorded Inhibition % with Parkinson's disease protein 7 (PARK7/DJ1) (human, UniProt Q99497) for the following compound: C=CC(=O)N1C[C@]2(C)CC[C@@H](C2)C1(C)C 15%

---

Recorded Inhibition % for the following compounds
# study.system: Parkinson's disease protein 7 (PARK7/DJ1) (human)
# measurement.notes: primary screen, percent inhibition; higher = more effect of the substance
# stated.conditions: 100 µM
# Procedure: The screen was conducted using the conditions as described above in 1536-well plates (Corning 3724) with a reaction volume of 8 μL per well. The compound library containing 7887 covalent fragments was purchased at Enamine Ltd. and received as 100 mM DMSO stocks in 384 well LDV Echo plates (Labcyte LP-0200). Stock solutions of 0.26 μM PARK7 and 80 nM JYQ-107 were prepared. […] After 2 h incubation, the FP signal was recorded on a BMG Labtech PHERAstar plate reader (λex/em 480/520 nm). […]
About 400 (5.1%) of roughly 7,900 compounds showed an effect of 50% or more. The sample holds strong results, similar compounds and a random draw of the others, so the mix is not that of the screen.
Just the number in %, nothing appended.

Recorded Inhibition %, per entry:
O=C(O)C=CC(=O)Nc1ccc2[nH]ncc2c1; 77.7
Cc1ccc([N+](=O)[O-])cc1NC(=O)CCl; 18.4
Cc1cc(F)ccc1OS(=O)(=O)c1cnn(C)c1; 9.05

Here is the next item to consider.
What does the data say about its Inhibition %? Entry: O=C(CCl)NN(c1ccccc1)c1ccccc1 10.3

---

# study.system: Parkinson's disease protein 7 (PARK7/DJ1) (human)
# measurement.notes: primary screen, percent inhibition; higher = more effect of the substance
# stated.conditions: 100 µM
In all, about 7,900 compounds went through this assay and about 400 (5.1%) showed an effect of 50% or more. The list comes from a sample in which strong results are over-represented; it also holds close analogues and randomly drawn compounds.
measured.parameter: Inhibition % (%)
Just the number in %, nothing appended.

Recorded Inhibition %, per entry:
O=[N+]([O-])c1ccc(C(F)(F)F)c(S(=O)(=O)F)c1; 102
C=CS(=O)(=O)c1cccc(C#N)c1; 6.17
O=C(CCl)Nc1nc2c(F)c(F)c(F)cc2s1; -4.93

Here is the next item to consider.
Give recorded Inhibition % with Parkinson's disease protein 7 (PARK7/DJ1) (human) for the following molecule: C=CC(=O)N1CCC(NC(=O)c2oc(C)cc2C)CC1 3.91

---

Recorded Inhibition % for the following compounds
# study.system: Parkinson's disease protein 7 (PARK7/DJ1) (human)
# measurement.notes: primary screen, percent inhibition; higher = more effect of the substance
# stated.conditions: 100 µM
Screen size: about 7,900 compounds; about 400 (5.1%) showed an effect of 50% or more. The entries come from a sample that favours strong results as a whole.
Just the number in %, nothing appended.

What does the data say about its Inhibition %? Entry: O=C(CCl)Nc1cc2c(cc1[N+](=O)[O-])OCCCO2 3.15

What does the data say about its Inhibition %? Entry: N#Cc1cc(C(=O)O)ccn1 4.99

What does the data say about its Inhibition %? Entry: CC1CC1C(=O)N1CCC(CS(=O)(=O)F)C1 (stereo not shown) 96.8

What does the data say about its Inhibition %? Entry: COc1cc(SC#N)ccc1O 15.4

What does the data say about its Inhibition %? Entry: Cc1ccc(C)c(Cn2cnc(C#N)n2)c1 2.61

What does the data say about its Inhibition %? Entry: O=C(CCl)NC(=O)c1ccc(OC(F)F)cc1 28.9

What does the data say about its Inhibition %? Entry: O=C(CCl)N1c2ccccc2Sc2ccc(Cl)cc21 6.3

---

Recorded Inhibition % for the following molecules
# study.system: Parkinson's disease protein 7 (PARK7/DJ1) (human, UniProt Q99497)
# measurement.notes: primary screen, percent inhibition; read as competition with a fluorescent probe by fluorescence polarization; higher = more effect of the substance
# stated.conditions: 100 µM
Hit rate of the full screen: of about 7,900 compounds, about 400 (5.1%) showed an effect of 50% or more. This is one part of a sample in which strong results are shown more often than they occur.
Just the number in %, nothing appended.

c1ncc(C2OCCO2)s1; 38.6
CC(NC(=O)Cn1cnc(C#N)n1)c1ccc(F)cc1 (stereo not shown); 4.98
Sc1nnnc2ccccc12; 3.52
CN(C)c1ccc(Cl)cc1NC(=O)CCl; 1.39
O=C1OCCC1N1C(=O)c2ccccc2S1(=O)=O (stereo not shown); 6.02

What does the data say about its Inhibition %? Entry: CCN(Cc1ccc(Cl)s1)C(=O)CCl 9.61

What does the data say about its Inhibition %? Entry: C=CC(=O)NCc1noc2c1CCCC2 4.47

What does the data say about its Inhibition %? Entry: O=C1SCCN1CN1CCC(c2ccccc2)CC1 11.7

What does the data say about its Inhibition %? Entry: CC1(C)OB(c2c(Cl)cccc2Cl)OC1(C)C 1.49

What does the data say about its Inhibition %? Entry: O=C1OCCC1Sc1nnc(C2CCCCC2)o1 (stereo not shown) 66.7
